The reported measurements were obtained from ChEMBL document CHEMBL1961873.

- MEASURED_ON: Tyrosine-protein kinase Lyn (Homo sapiens)
- PROTOCOL_CONDITIONS: at 0.1 µM
- Description: GSK_PKIS: LYN B (splice variant) mean inhibition at 0.1 uM [Nanosyn]

[
  {
    "COMPOUND": "NC(=O)c1cccc(Nc2nccc(Nc3cccc4[nH]ncc34)n2)c1",
    "inhibition (%)": 52.3
  },
  {
    "COMPOUND": "Cc1nnc(-c2ccc(C)c(-c3ccc(C(=O)Nc4cccc(C#N)c4)cc3)c2)o1",
    "inhibition (%)": 2.18
  },
  {
    "COMPOUND": "Cc1ccc(C(=O)NC2CCCCC2)cc1-c1ccc(C(=O)NCC2CC2)cc1",
    "inhibition (%)": 1.53
  },
  {
    "COMPOUND": "NS(=O)(=O)c1cccc(-c2ccc3c(NC(=O)C4CC4)n[nH]c3c2)c1",
    "inhibition (%)": 1.19
  },
  {
    "COMPOUND": "COc1ccc(COc2ccc(Cc3cnc(N)nc3N)cc2OC)cc1",
    "inhibition (%)": 0.18
  },
  {
    "COMPOUND": "CC1=C(C(=O)Nc2ccc3[nH]ncc3c2)C(c2ccc3ccccc3c2)CC(=O)N1 (centres undefined)",
    "inhibition (%)": 4.2
  },
  {
    "COMPOUND": "CC(C)=Cc1cccc2c1/C(=N/Nc1ccc(S(N)(=O)=O)cc1)C(=O)N2",
    "inhibition (%)": 5.19
  },
  {
    "COMPOUND": "CCn1c(-c2nonc2N)nc2c(C#CC(C)(C)O)nc(CN3CCCC3)cc21",
    "inhibition (%)": -1.39
  },
  {
    "COMPOUND": "CCN1CCC(CC(=O)Nc2n[nH]c3nc(-c4cccs4)c(Br)cc23)CC1",
    "inhibition (%)": -0.46
  }
]

---

Reported values of inhibition for individual entries
- MEASURED_ON: Homeodomain-interacting protein kinase 1 (Homo sapiens) (UniProt Q86Z02)
- Sequence (Q86Z02 whole entry, looked up): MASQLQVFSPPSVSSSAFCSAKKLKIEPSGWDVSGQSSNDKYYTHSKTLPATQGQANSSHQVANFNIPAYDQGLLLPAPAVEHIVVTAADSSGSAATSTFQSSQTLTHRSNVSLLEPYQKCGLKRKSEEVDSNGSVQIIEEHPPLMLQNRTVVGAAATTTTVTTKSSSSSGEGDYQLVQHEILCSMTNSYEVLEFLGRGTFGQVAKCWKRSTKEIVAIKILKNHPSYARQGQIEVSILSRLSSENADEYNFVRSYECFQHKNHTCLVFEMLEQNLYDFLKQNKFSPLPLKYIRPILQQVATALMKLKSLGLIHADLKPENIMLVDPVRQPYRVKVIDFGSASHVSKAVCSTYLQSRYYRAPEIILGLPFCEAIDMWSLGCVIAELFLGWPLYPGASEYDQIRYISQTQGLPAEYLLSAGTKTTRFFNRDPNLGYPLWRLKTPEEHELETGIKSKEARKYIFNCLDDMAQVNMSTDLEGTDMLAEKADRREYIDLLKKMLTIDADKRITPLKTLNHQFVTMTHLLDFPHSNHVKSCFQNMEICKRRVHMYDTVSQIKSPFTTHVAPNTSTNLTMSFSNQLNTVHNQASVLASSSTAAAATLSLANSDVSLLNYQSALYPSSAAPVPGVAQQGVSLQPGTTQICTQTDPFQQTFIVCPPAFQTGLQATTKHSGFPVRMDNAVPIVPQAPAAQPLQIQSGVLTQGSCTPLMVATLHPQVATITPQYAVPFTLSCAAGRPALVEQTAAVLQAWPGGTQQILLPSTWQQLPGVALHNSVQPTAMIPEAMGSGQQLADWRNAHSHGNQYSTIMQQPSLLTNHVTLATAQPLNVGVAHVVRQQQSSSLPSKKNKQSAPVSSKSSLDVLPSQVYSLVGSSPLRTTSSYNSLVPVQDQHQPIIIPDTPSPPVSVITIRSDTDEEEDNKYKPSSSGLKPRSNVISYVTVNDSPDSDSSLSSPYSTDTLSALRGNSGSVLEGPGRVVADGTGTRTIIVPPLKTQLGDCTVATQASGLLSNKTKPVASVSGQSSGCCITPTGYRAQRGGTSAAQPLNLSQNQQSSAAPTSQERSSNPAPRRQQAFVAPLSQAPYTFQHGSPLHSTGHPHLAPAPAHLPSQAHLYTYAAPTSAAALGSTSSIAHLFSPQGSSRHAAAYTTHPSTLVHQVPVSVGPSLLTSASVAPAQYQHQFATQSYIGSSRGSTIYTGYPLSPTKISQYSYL
- PROTOCOL_CONDITIONS: at 1 µM
MEASURED_ENDPOINT: inhibition (%)

[
  {
    "SMILES_ENTRY": "Nc1nc(-c2ccccn2)c(-c2ccc3ncccc3n2)s1",
    "MEAS_VALUE": 10.3
  },
  {
    "SMILES_ENTRY": "CS(=O)(=O)CCN(CC#N)Cc1ccc(-c2ccc3ncnc(Nc4ccc(OCc5cccc(F)c5)c(Cl)c4)c3c2)o1",
    "MEAS_VALUE": -4.34
  },
  {
    "SMILES_ENTRY": "NS(=O)(=O)c1ccc(N/N=C2\\C(=O)Nc3ccc(C(=O)NCCc4c[nH]cn4)cc32)cc1",
    "MEAS_VALUE": 48.9
  },
  {
    "SMILES_ENTRY": "Nc1ncnc2occ(-c3ccc(NC(=O)Nc4cc(C(F)(F)F)cc(C(F)(F)F)c4)cc3)c12",
    "MEAS_VALUE": 11.7
  },
  {
    "SMILES_ENTRY": "O=C(Nc1n[nH]c2nc(-c3ccco3)c(Br)cc12)C1CC1",
    "MEAS_VALUE": 3.67
  }
]

---

- MEASURED_ON: Serine/threonine-protein kinase BRSK2 (Homo sapiens) (UniProt Q8IWQ3)
- Sequence (Q8IWQ3 whole entry): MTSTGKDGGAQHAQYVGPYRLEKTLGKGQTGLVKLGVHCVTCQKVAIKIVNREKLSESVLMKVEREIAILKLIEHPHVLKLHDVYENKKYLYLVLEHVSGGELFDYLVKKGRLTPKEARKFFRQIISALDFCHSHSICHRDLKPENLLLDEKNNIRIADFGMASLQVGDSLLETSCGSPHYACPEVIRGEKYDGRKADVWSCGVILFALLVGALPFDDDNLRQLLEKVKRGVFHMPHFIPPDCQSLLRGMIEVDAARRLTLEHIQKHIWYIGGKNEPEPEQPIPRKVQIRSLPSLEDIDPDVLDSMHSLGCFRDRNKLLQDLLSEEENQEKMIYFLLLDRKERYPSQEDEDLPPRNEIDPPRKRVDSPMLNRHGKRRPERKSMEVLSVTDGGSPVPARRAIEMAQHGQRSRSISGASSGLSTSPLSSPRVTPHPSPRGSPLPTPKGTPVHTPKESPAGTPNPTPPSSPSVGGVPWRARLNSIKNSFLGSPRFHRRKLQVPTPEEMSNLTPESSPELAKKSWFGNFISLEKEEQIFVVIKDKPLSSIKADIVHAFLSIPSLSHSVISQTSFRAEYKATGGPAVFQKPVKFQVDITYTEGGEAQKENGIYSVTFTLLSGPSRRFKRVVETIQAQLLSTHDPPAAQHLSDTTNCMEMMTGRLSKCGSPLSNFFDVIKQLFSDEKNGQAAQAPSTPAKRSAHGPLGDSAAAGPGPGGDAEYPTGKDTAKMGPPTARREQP
- PROTOCOL_CONDITIONS: at 0.1 µM

[
  {
    "SMILES_ENTRY": "O=C1NC(=O)C(c2cccc(Cl)c2)=C1Nc1ccc(O)c(Cl)c1",
    "MEASURED_ON": "Serine/threonine-protein kinase BRSK2 (Homo sapiens) (UniProt Q8IWQ3)",
    "UNIT_DESCRIPTOR": "%",
    "inhibition": 2.05
  },
  {
    "SMILES_ENTRY": "COc1cc(C=NNc2ncnc3c2cnn3-c2ccccc2)ccc1O",
    "MEASURED_ON": "Serine/threonine-protein kinase BRSK2 (Homo sapiens) (UniProt Q8IWQ3)",
    "UNIT_DESCRIPTOR": "%",
    "inhibition": 10.3
  },
  {
    "SMILES_ENTRY": "NC(=O)c1ccc(-c2nc(-c3ccccn3)c(-c3ccc4c(c3)OCO4)[nH]2)cc1",
    "MEASURED_ON": "Serine/threonine-protein kinase BRSK2 (Homo sapiens) (UniProt Q8IWQ3)",
    "UNIT_DESCRIPTOR": "%",
    "inhibition": 0.53
  },
  {
    "SMILES_ENTRY": "COc1cc(C)c(NC(=O)CN(C)C)cc1Nc1nc(Nc2cccc(F)c2C(N)=O)c2cc[nH]c2n1",
    "MEASURED_ON": "Serine/threonine-protein kinase BRSK2 (Homo sapiens) (UniProt Q8IWQ3)",
    "UNIT_DESCRIPTOR": "%",
    "inhibition": 0.37
  },
  {
    "SMILES_ENTRY": "O=C1NC(=O)C(N2CCc3ccccc32)=C1c1ccc(Cl)cc1",
    "MEASURED_ON": "Serine/threonine-protein kinase BRSK2 (Homo sapiens) (UniProt Q8IWQ3)",
    "UNIT_DESCRIPTOR": "%",
    "inhibition": 2.92
  }
]
